The measurements presented in this section are drawn from paper PMC10501649.

target: TcHR96h (nuclear hormone receptor HR96h); test: microscale thermophoresis (MST), supported by DARTs; R448A mutation reduces affinity […]; type: binding, Tetranychus cinnabarinus
pKd: −log10 of the molar value.
Measurement label: pKd

1. COCCOC(=O)C(C#N)(C(=O)c1ccccc1C(F)(F)F)c1ccc(C(C)(C)C)cc1 (stereo not shown) [cyflumetofen] | 3.72

---

molecular target: TcHR96h (nuclear hormone receptor HR96h); test: microscale thermophoresis (MST), supported by DARTs; R448A mutation reduces affinity […]; type: binding, Tetranychus cinnabarinus
Measurement label: Kd (µM)

1. CC(C)(C)c1ccc(C(C#N)C(=O)c2ccccc2C(F)(F)F)cc1 (stereo not shown) | 138
